Examples of compounds with documented TGI follow.
Tested on: KM20L2 colon
Experiment: NCI tumour cell line growth inhibition, 48 h
readout: TGI

# compound, subject_of_test, readout_value
data = [
    ("COc1c(OC(C)=O)c(OC(C)=O)cc2c1-c1ccc(SC)c(=O)cc1C(NC(C)=O)CC2 (stereo unspecified)", "KM20L2 colon", "6.84 µM"),
    ("N#CC(OC1OC(COC2OC(CO)C(O)C(O)C2O)C(O)C(O)C1O)c1ccccc1 (stereo unspecified)", "KM20L2 colon", "> 225 µM"),
    ("COC(=O)/C=C1\\CCC(C)O1 (stereo unspecified)", "KM20L2 colon", "> 100 µM"),
    ("COC1(OC)CC2C(=O)N(Cc3ccccc3)C1C=C2S(=O)(=O)c1ccccc1 (stereo unspecified)", "KM20L2 colon", "33.1 µM"),
    ("Cc1c(/C=N/NC(=O)c2ccc(Cl)cc2)c(=O)n(-c2ccccc2)n1C", "KM20L2 colon", "> 100 µM"),
    ("CC1COC(C)(C)P(=O)(c2ccccc2)C1 (stereo unspecified)", "KM20L2 colon", "> 100 µM"),
    ("CNS(=O)(=O)NNS(=O)(=O)c1ccc(Br)cc1", "KM20L2 colon", "> 100 µM"),
    ("Cc1cc(S(=O)(=O)O)c(NC(=O)C(=O)Cc2cc(=O)oc3cc(O)ccc23)cc1Cl", "KM20L2 colon", "> 100 µM"),
    ("O=P1(c2ccccc2)CCCCC1", "KM20L2 colon", "> 100 µM"),
    ("CC(C)C(=O)NS(=O)(=O)c1ccccc1", "KM20L2 colon", "> 100 µM"),
    ("N#CC(C(=O)C(=O)Nc1ccc(Cl)cc1)c1ccccc1 (stereo unspecified)", "KM20L2 colon", "> 100 µM"),
]

---

Test system: SF-268 CNS
Experiment: NCI tumour cell line growth inhibition, 48 h
readout: TGI (µM)

# compound, relation_symbol, readout_value
measured = [
    ("Cc1cc(C)c(NC(=O)c2sc3nc4c(cc3c2N)CN(Cc2ccccc2)CC4)c(C)c1", "=", 64.8),
    ("O=C1NC(=O)C(c2c[nH]c3ccccc23)=C1c1cn(C(c2ccccc2)(c2ccccc2)c2ccccc2)cn1", "=", 33.2),
    ("COc1cc(OC)c(/C=C/c2c3ccccc3cc[n+]2C)c(OC)c1", "=", 19.3),
    ("CCOC(=O)/C=C/[C@H](O[Si](CC)(CC)CC)C(C)(C)C", ">", 100),
    ("COCC1(CO)C(=O)C2CCN1CC2 (stereo unspecified)", ">", 100),
    ("CCC(=O)O[C@H]1CC[C@H]2[C@@H]3CCC4=C/C(=N/OC(=O)c5cccc6c(=O)c7ccccc7[nH]c56)CC[C@]4(C)[C@H]3CC[C@]12C", ">", 100),
]

---

Test system: HS 578T breast
Test: NCI tumour cell line growth inhibition, 48 h; in the data active means GI50 below about 0.43 µM; inactive means the rest
Labels: active, inactive

# compound, class_name
records = [
    ("COc1ccc(-n2c(C)cc(-c3ccccc3)c2C)cc1", "inactive"),
    ("O=C1c2ccccc2-c2c1c1ccccc1c(=O)n2CCCCl", "inactive"),
    ("CCN1C(=O)N(CC)C2C1NN=c1s/c(=C3\\C(=O)N(CC(C)(C)C)c4ccccc43)c(=O)n12 (stereo not given)", "inactive"),
    ("O=S(=O)(Nc1ccc(F)cc1F)c1ccc(-c2cnc(C3CC3)o2)cc1", "inactive"),
    ("CSc1ccc2c(c1)C(=O)c1c-2n(CCCBr)c(=O)c2cc([N+](=O)[O-])ccc12", "inactive"),
    ("COc1ccc(O)c(C(=O)c2ccc(C(=O)N[C@H]3CCCNC[C@@H]3NC(=O)c3ccncc3)cc2)c1F", "active"),
    ("COc1cc2c3c(n(CCCOC(=O)C(F)(F)F)c(=O)c2cc1OC)-c1cc2c(cc1C3=O)OCO2", "inactive"),
    ("Cc1cc(C)c(NC(=O)c2sc3nc4c(cc3c2N)CN(Cc2ccccc2)CC4)c(C)c1", "inactive"),
    ("O=C(Nc1ccc(-n2ccc3c(NC(=O)c4ccccc4)nccc32)cc1)Nc1ccc(Cl)c(Cl)c1", "inactive"),
    ("COC(=O)[C@@H](C)C[C@H](Cc1ccccc1)NC(=O)c1csc([C@@H](C[C@H](C(C)C)N(C)C(=O)[C@@H](NC(=O)[C@H]2CCCCN2C)C2CCCCC2)OC(C)=O)n1", "active"),
    ("COc1cc(OC)c(/C=C/c2c3ccccc3cc[n+]2C)c(OC)c1", "inactive"),
    ("O=C1NC(=NCCc2cccc(Cl)c2)S/C1=C\\c1ccc2ncccc2c1", "inactive"),
    ("CC(=O)Oc1ccccc1C(=O)Nc1ncc([N+](=O)[O-])s1", "inactive"),
    ("N#Cc1c(N/N=C/c2ccc(Cl)cc2Cl)nc(N)nc1N1CCCC1", "inactive"),
    ("CC1=C(C(=O)Nc2ccc(Cl)c(Cl)c2)C(c2cccc(Oc3ccccc3)c2)NC(=O)N1 (stereo not given)", "inactive"),
]
